Listed molecules paired with reported pIC50
# procedureText: Inhibition of HBV RNA polymerase
# Set-up: species or system Hepatitis B virus
pIC50: −log10 of the molar value.

{"columns": ["molecule", "pIC50"],
 "data": [
  ["C[C@]12CC[C@@H]3c4ccc(OC(=O)c5ccccc5)cc4CC[C@H]3[C@@H]1CC[C@@H]2O [ESTRADIOL BENZOATE]", 3.55],
  ["O=C(Nc1ccc2c(=O)c3cccc(F)c3oc2c1)c1ccccc1", 5.72],
  ["CCOC(=O)c1cc(-c2cc(=O)oc3ccccc23)oc1C", 4.78]
]}

###

// Triosephosphate isomerase (Homo sapiens, UniProt P60174) IC50 records

{"columns": ["compoundString", "IC50 (nM)"],
 "data": [
  ["C[C@]12CCCC[C@@H]1CC[C@@H]1[C@@H]2CC[C@]2(C)[C@@H]([C@H](O)CCc3ccc(F)cc3)CC[C@@H]12", 10600],
  ["C=C(c1ccc(C(=O)O)cc1)c1cc2c(cc1C)C(C)(C)CCC2(C)C", 1890],
  ["CCCCCCCc1cc(OC(=O)c2c(CCCCCCC)cc(O)cc2O[C@H]2O[C@@H](CO)[C@H](O)[C@@H](O)[C@@H]2O)cc(O)c1C(=O)O", 1700],
  ["CC[C@H](C)C[C@H](C)C(=O)O[C@]1(C)C(=O)c2c(cc(O)c3c2C[C@@H](O)C[C@H]3C)[C@@](C)(O)C1=O", 610]
]}

###

# tgt: Human immunodeficiency virus type 1 reverse transcriptase (Human immunodeficiency virus 1, UniProt Q72547)
quantity: IC50 (nM)

{"columns": ["compoundString", "readoutUnit", "experimentalValue"],
 "data": [
  ["Nc1ncnc2c1ncn2[C@@H]1OC[C@](F)(COP(=O)(O)OP(=O)(O)OP(=O)(O)O)[C@H]1CO", "nM", 320]
]}

###

# tgt: NAD-dependent protein deacetylase sirtuin-2 (Homo sapiens, UniProt Q8IXJ6)
# Sequence (Q8IXJ6 whole entry): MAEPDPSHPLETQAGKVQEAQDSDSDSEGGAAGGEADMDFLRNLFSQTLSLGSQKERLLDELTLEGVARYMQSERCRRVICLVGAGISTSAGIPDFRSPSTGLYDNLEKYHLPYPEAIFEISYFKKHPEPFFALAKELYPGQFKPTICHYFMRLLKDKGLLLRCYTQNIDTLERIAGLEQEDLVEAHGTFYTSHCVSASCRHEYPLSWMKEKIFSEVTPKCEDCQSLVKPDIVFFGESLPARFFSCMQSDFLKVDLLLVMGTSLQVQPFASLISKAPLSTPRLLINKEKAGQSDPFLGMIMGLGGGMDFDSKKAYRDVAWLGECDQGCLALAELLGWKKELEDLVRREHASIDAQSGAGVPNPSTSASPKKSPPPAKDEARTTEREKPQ
quantity: IC50

{"columns": ["compoundString", "tgt", "experimentalValue"],
 "data": [
  ["Cc1cn(-c2ccc3c(c2)CN(c2ncc(Cc4ccc(-n5cccn5)cc4)s2)CC3)c(C)n1", "NAD-dependent protein deacetylase sirtuin-2 (Homo sapiens, UniProt Q8IXJ6)", "< 620 nM"]
]}

###

Listed compounds paired with reported pEC50
# Tested on: Hepatitis B virus
# procedureText: Antiviral activity against HBV infected in human HepDES19 cells assessed as inhibition of extracellular HBV DNA by qPCR analysis
# Type: functional, organism-based
pEC50: −log10 of the molar value.

{"columns": ["compound", "censoringQualifier", "pEC50"],
 "data": [
  ["CCOC(=O)C1=C(CN2CCOCC2)NC(c2nccs2)=NC1c1ccc(F)cc1Br (stereo not drawn)", "=", 7.00],
  ["CCOC(=O)C1=C(CN2CCN(C(C(=O)O)c3cccc([N+](=O)[O-])c3)CC2)NC(c2nccs2)=NC1c1ccc(F)cc1Br (stereo not drawn)", "=", 7.62],
  ["CCOC(=O)C1=C(CN2CCN(C(C(=O)O)c3ccoc3)CC2)NC(c2nccs2)=NC1c1ccc(F)cc1Br (stereo not drawn)", "<", 5.00]
]}

###

# tgt: SRSF protein kinase 1 (Homo sapiens, UniProt Q96SB4)
# Sequence (Q96SB4 whole entry): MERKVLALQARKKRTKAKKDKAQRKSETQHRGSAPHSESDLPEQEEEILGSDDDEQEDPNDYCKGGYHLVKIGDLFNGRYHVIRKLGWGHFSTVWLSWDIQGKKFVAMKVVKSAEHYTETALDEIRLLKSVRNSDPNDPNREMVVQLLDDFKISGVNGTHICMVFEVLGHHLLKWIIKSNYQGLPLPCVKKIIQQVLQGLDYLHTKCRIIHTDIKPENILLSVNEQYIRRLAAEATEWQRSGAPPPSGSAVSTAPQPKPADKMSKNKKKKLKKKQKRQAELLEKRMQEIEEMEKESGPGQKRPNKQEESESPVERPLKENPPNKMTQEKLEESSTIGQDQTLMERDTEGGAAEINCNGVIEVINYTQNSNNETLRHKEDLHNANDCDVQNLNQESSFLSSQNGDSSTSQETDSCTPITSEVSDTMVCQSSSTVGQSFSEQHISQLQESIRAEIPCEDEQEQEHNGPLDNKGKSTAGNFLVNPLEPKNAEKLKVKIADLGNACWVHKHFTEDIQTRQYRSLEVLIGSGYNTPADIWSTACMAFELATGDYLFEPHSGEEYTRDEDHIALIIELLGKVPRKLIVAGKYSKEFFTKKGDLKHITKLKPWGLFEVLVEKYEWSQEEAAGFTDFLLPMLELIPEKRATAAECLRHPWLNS

{"columns": ["compoundString", "tgt", "readoutUnit", "IC50"],
 "data": [
  ["CCc1cc2c(cc1-c1cccc(S(=O)(=O)F)c1)C(C)(C)c1[nH]c3cc(C#N)ccc3c1C2=O", "SRSF protein kinase 1 (Homo sapiens, UniProt Q96SB4)", "µM", 9.4]
]}
